Molecular target: T1, 4H745-AA
T1 chain: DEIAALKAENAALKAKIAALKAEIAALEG
Assay: two-hybrid library CCmax;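 further: natural log of median RNA to DNA barcode read ratio; higher means stronger binding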
Conditions: mean of both orientations
Rule: interaction score of 1 or more gives T; anything lower gives F.

## Input Entry DKIAALKAENAALEAKIAALEAKIAALEG [4H2725-AA] : is its interaction score no less than 1?
## Output T

***
## Input Does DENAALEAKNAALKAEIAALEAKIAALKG [4H1478-AA] have a reported interaction score of at least 1?
## Output T

## Input Is interaction score at least 1? Consider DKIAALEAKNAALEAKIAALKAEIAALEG [4H2473-AA]
## Output F
